Values compiled from PubChem BioAssay AID1377.

Assay: rescue of L929 cells from zVAD death – primary screen (AID 1377)
Details: L929 zVAD necroptosis rescue, ATP luminescence, 24 h, at 10 µM, active compounds read high; with zVAD 60 µM unless noted
Hit rate of the full screen: of about 220,000 compounds, about 830 (0.38%) were called active. Many of the other results were omitted from the sample, so actives are more common in it than they were.
# if measured viability rescue < 2%: Y  # else: N

> print(dat)
                                   compound  label.class
1  Cc1cccc(C)c1NC(=O)CSc1ccc([N+](=O)[O-])cn1            Y
2  O=C(CCN1CCN(c2ccccc2)CC1)NNC(=S)Nc1ccccc1            Y
3  O=C(Nc1nnc(C2CC2)s1)C1=NN(C2CCS(=O)(=O)C2)C(=O)CC1 (stereo not given)            Y

Does "O=C(CSc1ccc([N+](=O)[O-])cn1)Nc1ccc(N2CCOCC2)cc1" have viability rescue strictly under 2%?
N

Hi there! Is viability rescue for "C/C(Cc1ccccc1)=N\NC(=O)CNC(=O)c1ccc2c(c1)OCCO2" below 2%, do you know?
Y
